Consider the following sequences; for each one, report its folding enthalpy.
Assay: folding enthalpy; higher = less favourable; fluorescence melt of hairpins on a sequencing array, two-state fit
Conditions: sodium 0.088 M
Write down the numeric answer in kcal/mol and omit the unit.

folding enthalpy in this record for GCTAGGCGAAAGCGGAGC (((..((....))..))) : -20.1

folding enthalpy in this record for GAGCCCGGAAACGAGCTC ((((.((....)).)))) : -35.8

folding enthalpy in this record for GATCACGTGCGTGATC ((((((....)))))) : -45.1

folding enthalpy in this record for GACCCACGAAAGTGGTC (((.(((....)))))) : -13.3

folding enthalpy in this record for GCGGTGACCCGC ((((....)))) : -23.1

folding enthalpy in this record for GAGACCGGAAACGATCTC ((((.((....)).)))) : -31.9

folding enthalpy in this record for CGCCCGGAAACGGTGCG ((((((....))).))) : -31.7

folding enthalpy in this record for GTCCGCCGAAAGGCGAC (((.(((....)))))) : -9.54

folding enthalpy in this record for GCGTTGGCACGC ((((....)))) : -17.2

folding enthalpy in this record for GATGATGGAAACATCATC (((((((....))))))) : -45

folding enthalpy in this record for GATCTATTCTTAGATC ((((((....)))))) : -40.9

folding enthalpy in this record for GGTTGCGGAAACGCGATC (.(.(((....))).).) : -19.7

###

Assay: melting temperature; fluorescence melt of hairpins on a sequencing array, two-state fit, raised by 9.35 °C to match UV melts
Conditions: sodium 0.088 M
Mark rule not met for Tm values under 50 °C, and rule met for everything at or above.

Query: Could you tell me if the measured Tm of GCCCTCGAAAGAGAGGC ((((((....))).))) reaches 50 °C or more?
Result: rule met

Query: Could you tell me if the measured Tm of GAGGGAGAAATCCCTC ((((((....)))))) reaches 50 °C or more?
Result: rule met

Query: Could you tell me if the measured Tm of GCAGAGGCGAAAGCCTGC (((..(((....)))))) reaches 50 °C or more?
Result: rule met

Query: Could you tell me if the measured Tm of GATCGGCCACCGATC ((((((...)))))) reaches 50 °C or more?
Result: rule met

Query: Could you tell me if the measured Tm of GGTCACGAAAGTGAAACC ((((((....)))..))) reaches 50 °C or more?
Result: rule not met

Query: Could you tell me if the measured Tm of GCGGGGCGAAAGCGTCGC (((..((....))..))) reaches 50 °C or more?
Result: rule met

Query: Could you tell me if the measured Tm of GATTTGGGAAACCGAATC ((((.((....)).)))) reaches 50 °C or more?
Result: rule not met

Query: Could you tell me if the measured Tm of GATCGTTATTACGATC ((((((....)))))) reaches 50 °C or more?
Result: rule met

Query: Could you tell me if the measured Tm of CGATCCGGAAACGGCTCG (((.(((....))).))) reaches 50 °C or more?
Result: rule not met

Query: Could you tell me if the measured Tm of GACGCGGGAAACCGCATC ((.((((....)))).)) reaches 50 °C or more?
Result: rule not met

Query: Could you tell me if the measured Tm of GCTAAGCGAAAGCTGCGC ((..(((....)))..)) reaches 50 °C or more?
Result: rule met
